Numbers sourced from the supplement of paper PMC8728848.

Biological target: Neu5Ac(a2-8)Neu5Ac(a2-3)Gal(b1-4)GlcNAc
Assay: glycan array binding signal (z-score within array); higher = stronger binding
Details: glycan notation: IUPAC condensed, linker removed
Shown is part of a subset that was picked to be rich in the strongest signals.
recorded.metric: glycan array binding signal (z-score)

- Erv46-EDTA (Saccharomyces cerevisiae), P39727 (protein) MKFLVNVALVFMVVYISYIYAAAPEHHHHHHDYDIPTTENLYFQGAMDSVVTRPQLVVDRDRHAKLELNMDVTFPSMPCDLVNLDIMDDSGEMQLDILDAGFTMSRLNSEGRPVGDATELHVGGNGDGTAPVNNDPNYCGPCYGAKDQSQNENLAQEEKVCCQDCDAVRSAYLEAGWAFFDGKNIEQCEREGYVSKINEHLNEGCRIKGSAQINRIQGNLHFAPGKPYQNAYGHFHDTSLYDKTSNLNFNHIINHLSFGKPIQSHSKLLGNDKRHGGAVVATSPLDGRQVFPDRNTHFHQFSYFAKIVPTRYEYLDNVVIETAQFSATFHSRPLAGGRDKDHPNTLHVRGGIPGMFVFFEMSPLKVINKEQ: -0.501
